tested on: SF-268 CNS; test: NCI tumour cell line growth inhibition, 48 h
quantity-measured: log10 of TGI (log10 of the value in µM)
Form field - Quantity: TGI; Unit: µM; Scale: log10

Sample answers from the record:
Cc1cc([N+](=O)[O-])c(C)c2c1[nH]c1ccc(/C(CCC3CCCC3)=N\N)cc12    1.57
O=C(OC12CC3CC(CC(C3)C1)C2)c1ccc(NCc2cc(O)ccc2O)cc1    0.76
C[C@]12CC[C@@H]3c4ccc(O)c([N+](=O)[O-])c4CC[C@H]3[C@@H]1CC[C@@H]2NS(=O)(=O)c1ccc(C(F)(F)F)cc1    0.88
COc1cc2c3c(cc(Cl)nc3c1OC)C(=O)C(=O)N2    1.50
COC(=O)c1ccc2c(c1)C(NC(C)=O)CCc1cc(OC)c(OC)c(OC)c1-2 (centres undefined)    1.89
COc1ccc(C2=C(Cl)C(=O)O/C2=C\c2ccc(OC)c(Br)c2)cc1Cl    1.58

The measured log10 of TGI associated with O=CN1CCN(C(=O)c2ccco2)C1=S reads 1.46

###

I'd appreciate it if you could supply TGI values for the items below.
tested on: UACC-62 melanoma; experiment: NCI tumour cell line growth inhibition, 48 h

CCCO/N=[N+](\[O-])N(CC)CC    > 100 µM
CCCCN1C(=O)CC2[C@@H]3CCc4cc(OC)ccc4C3CC[C@]2(C)C1=O (stereo partly specified)    > 10 µM
O=C1[C@@H](c2ccc(Cl)cc2)[C@H]2CC=C[C@H]2N1O    > 100 µM
O=C1/C(=C/c2ccc(Cl)cc2)CCCc2ccc(F)cc21    47 µM
Clc1ccc([O][In]([O]c2ccc(Cl)cn2)[O]c2ccc(Cl)cn2)nc1    > 100 µM
COc1ccc(C2=C(Cl)C(=O)O/C2=C\c2ccc(OC)c(Br)c2)cc1Cl    74.9 µM
NC(N)=NS(=O)(=O)c1ccc(NC(=O)c2cccc3c(NNc4ccc(S(N)(=O)=O)cc4)c4ccccc4nc23)cc1    > 100 µM
CC(O)CNC1=CC(=O)C(=O)c2ccccc21 (stereo unspecified)    26.8 µM

For each entry beneath this line, provide reported TGI.
1. COc1ccc(-n2nnc3c(sc4ccccc43)c2=O)cc1
2. Cc1nc(SCC(N)=O)c2sc(=S)n(-c3ccccc3)c2n1
3. CC[O-].CC[O-].O=C1C(=C([O-])c2ccccc2)C(=O)c2ccccc21.O=C1C(=C([O-])c2ccccc2)C(=O)c2ccccc21.[Ti+4]
4. CC(=O)c1cccc(N(/C=C/C(=O)C(F)(F)F)CC(=O)c2ccc(Cl)cc2)c1
5. Cc1ccc2c(c1C)CC1(Cc3c(C)ccc(C)c3C1=O)C2=O (stereo unspecified)
6. CC(CO)[C@H]1OC(=O)C=C2[C@@]13O[C@@H]3[C@H]1OC(=O)[C@@]3(C)[C@H]4O[C@H]4C[C@@]2(C)[C@@H]13 (stereo partly specified)

1. > 100 µM
2. > 10 µM
3. > 100 µM
4. > 100 µM
5. > 100 µM
6. 7.36 µM

For each entry beneath this line, provide reported TGI.
1. Oc1c(OCc2nnc(CCCCCCCCc3nnc(COc4ccc5ccccc5c4O)o3)o2)ccc2ccccc12
2. O=C(OC12CC3CC(CC(C3)C1)C2)c1ccc(NCc2cc(O)ccc2O)cc1
3. COc1cc2nncc(Sc3cnnc4ccccc34)c2cc1OC
4. O=c1oc2ccccc2c(O)c1C=NC(=S)c1ccncc1
5. Cc1cn(CCCCCOC(=O)NC(CCCNC(N)=O)C(=O)O)c(=O)[nH]c1=O (stereo unspecified)

1: > 100 µM; 2: 3.28 µM; 3: > 100 µM; 4: > 100 µM; 5: > 100 µM

For each entry beneath this line, provide reported TGI.
1. CC(C)N(C(=O)C12C3C4C1C1C2C3C41C(O)C(C)(C)C)C(C)C (stereo unspecified)
2. COc1ccc(Cl)cc1Nc1nc(C(F)(F)F)ccc1C(=O)NN

["> 50 µM", "53.5 µM"]

###

tested on: K-562 leukemia; assay: NCI tumour cell line growth inhibition, 48 h
quantity-measured: TGI

COCC#C[C@@]1(O)CCCCC1CC(OC)OC (stereo not given in full)    > 100 µM
CCCCCCCCCCCCOCCOCCOCCOCCOCCOCC(=O)NC(Cc1ccccc1)C(=O)Oc1ccc([N+](=O)[O-])cc1 (stereo not given)    > 100 µM
Fc1cccc(COc2ccc(Nc3ncnc4sc(-c5ccco5)cc34)cc2Cl)c1    > 25 µM
CC(=O)OC1CC2(O)C(CCC3(C)C(c4ccc(=O)oc4)CCC32O)C2(C)C1=CC(O)C1OC12 (stereo not given)    0.381 µM
CC(C)(C)OC(=O)NCC(C#N)CNC(=O)OC(C)(C)C    > 100 µM
Nc1nc2c(ncn2Cc2ccccc2CCO)c(=O)[nH]1    > 100 µM

For each entry beneath this line, provide reported TGI.
1. CC12CC3(C)CC(C)(C1)CC(N=[N+]=[N-])(C2)C3
2. O=C1/C(=C/c2ccc(Cl)cc2)CCCc2ccc(F)cc21
3. COc1cc(-c2oc3ccccc3c(=O)c2O)cc(OC)c1OC
4. COc1cc(-c2csc(NC(=O)c3cc(C(F)(F)F)cc(C(F)(F)F)c3)n2)cc(OC)c1OC

1. > 100 µM
2. > 100 µM
3. > 100 µM
4. > 100 µM

###

system: NCI-H226 lung; experiment: NCI tumour cell line growth inhibition, 48 h; in the data active = GI50 below about 0.43 µM; inactive = the rest
Outcome field: choose from active, inactive

Record lookup: outcome of this test for Clc1ccc([O][In]([O]c2ccc(Cl)cn2)[O]c2ccc(Cl)cn2)nc1 ?
inactive

Record lookup: outcome of this test for CNC(=O)Nc1ccc(-c2nc(N3CCOCC3)nc3c2cnn3C2CCOCC2)cc1 ?
active

Record lookup: outcome of this test for COc1cc(C2c3cc4c(cc3[C@@H](Nc3ccc(N(C)C)cc3)[C@H]3COC(=O)C23)OCO4)cc(OC)c1O (stereo not given in full) ?
active

Record lookup: outcome of this test for CCOC(=O)c1c(NC(=O)c2ccc(C(C)C)cc2)sc2c(CN(C)C)c(O)ccc12 ?
inactive

Record lookup: outcome of this test for CS(=O)(=O)c1ccc(Cl)c([N+](=O)[O-])c1 ?
inactive

###

system: DMS 273 small cell lung; assay: NCI tumour cell line growth inhibition, 48 h
I'd appreciate it if you could supply TGI values for the items below.

Sample answers from the record:
O=C1N[C@@H]2CCC[C@@H]2[C@@H]1c1ccc(Cl)cc1    > 100 µM
CCC1(Br)C(=O)NC(=O)N(C2CC(O)C(CO)O2)C1N=[N+]=[N-] (stereo not given)    > 100 µM
c1c(N2CCOCC2)ssc1=[N+]1CCOCC1    > 100 µM

For each entry beneath this line, provide reported TGI.
1. CC(C)N(C(C)C)[PH+]1O[PH+](N(C(C)C)C(C)C)O[PH+](N(C(C)C)C(C)C)O[PH+](N(C(C)C)C(C)C)O[PH+](N(C(C)C)C(C)C)O1.[C-]#[O+].[C-]#[O+].[C-]#[O+].[C-]#[O+].[C-]#[O+].[C-]#[O+].[C-]#[O+].[Cr].[Cr] (stereo not given)
2. COC(=O)C1=CCON(c2ccccc2)C1c1ccccc1 (stereo not given)

1. > 100 µM
2. > 100 µM

For each entry beneath this line, provide reported TGI.
1. O=C(C(=O)c1ccc(Cc2ccc(C(=O)C(=O)c3ccccc3)cc2)cc1)c1ccccc1
2. COc1cc2nncc(Sc3cnnc4ccccc34)c2cc1OC
3. Cc1cc([N+](=O)[O-])c(C)c2c1[nH]c1ccc(/C(CCC3CCCC3)=N\N)cc12
4. COc1ccc([C@H]2CC(=O)N3CCCC3N2)cc1 (stereo not given in full)
5. Nc1nc2c(ncn2Cc2ccccc2CCO)c(=O)[nH]1
6. CC12CC3(C)CC(C)(C1)CC(N=[N+]=[N-])(C2)C3
7. Cc1cc(Cl)ccc1NC(=O)C(=O)Cc1nc2ccc(C(=O)c3ccccc3)cc2[nH]c1=O

["> 100 µM", "81.7 µM", "36.3 µM", "> 100 µM", "> 100 µM", "> 100 µM", "> 100 µM"]

For each entry beneath this line, provide reported TGI.
1. COC(=O)c1ccc2c(c1)C(NC(C)=O)CCc1cc(OC)c(OC)c(OC)c1-2 (stereo not given)
2. COc1ccc(C(C2=C(C)C(=O)c3ccccc3C2=O)c2ccc(C(C)C)cc(=O)c2O)cc1 (stereo not given)
3. COc1ccc(OC)c(NC(=O)C(=O)C(C(=O)c2ccccc2F)C2OC(=O)c3ccccc32)c1 (stereo not given)

1. > 100 µM
2. 5.4 µM
3. > 100 µM

###

tested on: 786-0 renal; test: NCI tumour cell line growth inhibition, 48 h
quantity-measured: TGI

CCC1(Br)C(=O)NC(=O)N(C2CC(O)C(CO)O2)C1N=[N+]=[N-] (stereo not given)    > 100 µM
COc1ccc(-c2cc(-c3ccc(Cl)cc3)c(C#N)c(=O)n2CCCCC(=O)Nc2ccccc2N)cc1    > 100 µM

For each entry beneath this line, provide reported TGI.
1. CC1(C)CCC(C)(C)c2cc(C(=O)Nc3ccc(C(=O)O)cc3)ccc21
2. CSc1nc2c(c(O)c(C)c(=O)n2C2OC(COC(C)=O)C(OC(C)=O)C(OC(C)=O)C2OC(C)=O)c(=O)n1C (stereo not given)
3. Nc1cc(N)c2nc(-c3ccccc3)c(Oc3ccc(F)cc3)nc2c1

["> 56.5 µM", "> 100 µM", "36.3 µM"]

For each entry beneath this line, provide reported TGI.
1. Clc1cc(C(c2cc(Cl)sc2Cl)c2cc(Cl)sc2Cl)c(Cl)s1
2. Cc1ccc2c(c1C)CC1(Cc3c(C)ccc(C)c3C1=O)C2=O (stereo not given)

["> 100 µM", "> 100 µM"]

For each entry beneath this line, provide reported TGI.
1. CC(CO)[C@H]1OC(=O)C=C2[C@@]13O[C@@H]3[C@H]1OC(=O)[C@@]3(C)[C@H]4O[C@H]4C[C@@]2(C)[C@@H]13 (stereo not given in full)
2. CC(=O)N(CCN)CCN
3. Fc1cccc(COc2ccc(Nc3ncnc4sc(-c5ccco5)cc34)cc2Cl)c1

["> 28.1 µM", "> 10 µM", "> 25 µM"]
